- test protocol: NCI Yeast Anticancer Drug Screen. Data for the rad50 strain (AID 155);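 further: 0% = growth of vehicle-only cultures of the same strain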
- experimental setup: S. cerevisiae rad50 strain growth inhibition; at 50.0 µM (retest, dose inferred, filed as 5.0); active compounds read high
This is part of a sample that, as a whole, favours compounds with a hit. Of some 79,000 tested, about 15% had one in any assay.
Catalogue of growth inhibition readings, one per entry.

[
  {
    "compound": "Oc1ccc(O)c2c1CC=C(Cl)C2",
    "growth inhibition (%)": 48
  },
  {
    "compound": "CCCCCCCCCCCCSCCCN",
    "growth inhibition (%)": 99
  },
  {
    "compound": "CCCCCCCCCCCCCCCCNC(C)c1ccccc1 (stereo unspecified)",
    "growth inhibition (%)": -3
  },
  {
    "compound": "O=C(O)c1cc(C(=O)O)c(C(=O)O)cc1C(=O)O.[NH-]C1CCCC1.[NH-]C1CCCC1.[NH-]C1CCCC1.[NH-]C1CCCC1.[Pt+2].[Pt+2]",
    "growth inhibition (%)": 99
  },
  {
    "compound": "O=C(CCc1c[nH]c2ccccc12)c1ccccc1O",
    "growth inhibition (%)": 5
  },
  {
    "compound": "CC(=O)OC1OC2C(NC(=O)OC(C)(C)C)C1CC2(OCc1ccccc1)OCc1ccccc1 (stereo unspecified)",
    "growth inhibition (%)": 35
  },
  {
    "compound": "COc1ccccc1C(=O)c1c(C(=O)O)ccc2ccccc12",
    "growth inhibition (%)": -17
  },
  {
    "compound": "CCOC(=O)/C=C(/Cl)C(=O)OCC",
    "growth inhibition (%)": 98
  },
  {
    "compound": "CNC(=O)OCC1=CC(=O)C(OC)=C(OC)C1=O",
    "growth inhibition (%)": -8
  },
  {
    "compound": "Cc1cc(/C=N/Nc2ccc3cccc(O)c3n2)c(O)c2ncccc12",
    "growth inhibition (%)": 98
  },
  {
    "compound": "CCCCCCCCCCCC(=O)OCCN(CCOC(=O)CCCCCCCCCCC)C(=O)COC(=O)CCCCCCCCCCC",
    "growth inhibition (%)": 39
  }
]
